- Target of assay: Acetylcholine receptor (Torpedo californica, UniProt P02710+P02712+P02714+P02718)
- Sequence (P02710 whole entry): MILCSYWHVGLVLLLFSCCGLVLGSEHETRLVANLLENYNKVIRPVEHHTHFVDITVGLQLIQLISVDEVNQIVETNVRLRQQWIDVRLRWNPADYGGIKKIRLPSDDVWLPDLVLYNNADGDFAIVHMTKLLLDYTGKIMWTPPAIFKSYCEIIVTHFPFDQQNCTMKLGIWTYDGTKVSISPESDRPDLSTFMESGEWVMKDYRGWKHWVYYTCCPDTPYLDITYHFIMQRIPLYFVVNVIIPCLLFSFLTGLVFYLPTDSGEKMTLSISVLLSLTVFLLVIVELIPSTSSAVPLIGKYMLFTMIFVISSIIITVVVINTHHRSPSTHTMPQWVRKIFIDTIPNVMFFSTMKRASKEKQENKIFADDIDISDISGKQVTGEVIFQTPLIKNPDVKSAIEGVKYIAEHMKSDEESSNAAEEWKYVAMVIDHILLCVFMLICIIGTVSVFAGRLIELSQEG
- Sequence (P02712 whole entry): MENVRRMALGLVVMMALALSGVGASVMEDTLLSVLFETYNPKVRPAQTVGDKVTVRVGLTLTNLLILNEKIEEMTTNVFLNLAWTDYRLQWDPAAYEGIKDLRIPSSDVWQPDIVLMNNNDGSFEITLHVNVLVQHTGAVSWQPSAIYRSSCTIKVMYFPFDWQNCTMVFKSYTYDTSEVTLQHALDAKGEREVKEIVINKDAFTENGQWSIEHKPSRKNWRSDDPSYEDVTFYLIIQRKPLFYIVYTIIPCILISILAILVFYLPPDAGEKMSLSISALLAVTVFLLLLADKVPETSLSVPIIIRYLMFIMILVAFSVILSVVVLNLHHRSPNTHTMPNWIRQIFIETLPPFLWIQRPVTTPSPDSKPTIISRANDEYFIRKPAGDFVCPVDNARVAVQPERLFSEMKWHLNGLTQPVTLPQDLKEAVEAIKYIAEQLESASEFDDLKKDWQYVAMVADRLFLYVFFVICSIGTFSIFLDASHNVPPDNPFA
- Sequence (P02718 whole entry): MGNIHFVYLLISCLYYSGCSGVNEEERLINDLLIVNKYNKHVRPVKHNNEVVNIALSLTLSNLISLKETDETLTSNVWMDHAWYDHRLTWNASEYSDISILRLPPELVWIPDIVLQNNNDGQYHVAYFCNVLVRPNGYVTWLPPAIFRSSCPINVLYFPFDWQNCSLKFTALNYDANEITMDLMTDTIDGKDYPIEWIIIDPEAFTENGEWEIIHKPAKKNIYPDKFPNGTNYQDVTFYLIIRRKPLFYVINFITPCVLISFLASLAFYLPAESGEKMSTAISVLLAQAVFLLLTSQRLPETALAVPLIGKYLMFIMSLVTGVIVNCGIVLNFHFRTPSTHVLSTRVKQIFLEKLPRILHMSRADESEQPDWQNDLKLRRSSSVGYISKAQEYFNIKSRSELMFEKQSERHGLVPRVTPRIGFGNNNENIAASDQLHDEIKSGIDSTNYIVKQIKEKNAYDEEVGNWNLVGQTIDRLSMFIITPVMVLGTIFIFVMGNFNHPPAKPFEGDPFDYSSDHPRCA
- Sequence (P02714 whole entry): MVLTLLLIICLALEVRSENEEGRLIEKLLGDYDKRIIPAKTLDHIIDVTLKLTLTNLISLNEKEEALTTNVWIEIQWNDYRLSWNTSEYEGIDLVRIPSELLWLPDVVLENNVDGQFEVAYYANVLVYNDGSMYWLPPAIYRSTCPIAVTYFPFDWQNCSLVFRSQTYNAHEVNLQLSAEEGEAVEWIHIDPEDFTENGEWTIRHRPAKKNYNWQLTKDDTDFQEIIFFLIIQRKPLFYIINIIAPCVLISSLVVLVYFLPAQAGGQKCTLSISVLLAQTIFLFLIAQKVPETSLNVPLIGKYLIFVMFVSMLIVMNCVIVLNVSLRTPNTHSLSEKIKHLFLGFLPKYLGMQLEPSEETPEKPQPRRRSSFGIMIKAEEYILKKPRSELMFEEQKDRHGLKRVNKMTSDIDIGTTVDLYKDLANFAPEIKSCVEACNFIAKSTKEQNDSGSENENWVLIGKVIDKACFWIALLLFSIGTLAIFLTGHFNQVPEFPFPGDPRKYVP
- Test name: inhibition of (-)-[3H]nicotine binding to torpedo electroplax membranes
Metric: IC50 (nM)

> print(dat)
                                   molecule                           target.of.assay  metric  numeric.result
1  Cc1nccc2c1C1CCC(CC2)N1 (stereo not given)  Acetylcholine receptor (Torpedo californica, UniProt P02710+P02712+P02714+P02718)    IC50             300
2                    c1cncc([C@@H]2CCCN2)c1  Acetylcholine receptor (Torpedo californica, UniProt P02710+P02712+P02714+P02718)    IC50             100
3  c1cc2c(cn1)C1CCC(CC2)N1 (stereo not given)  Acetylcholine receptor (Torpedo californica, UniProt P02710+P02712+P02714+P02718)    IC50               1
4                      CN1CCC[C@H]1c1cccnc1  Acetylcholine receptor (Torpedo californica, UniProt P02710+P02712+P02714+P02718)    IC50               4
5   CN1C2CCc3ccncc3C1CC2 (stereo not given)  Acetylcholine receptor (Torpedo californica, UniProt P02710+P02712+P02714+P02718)    IC50             800
